target: EGFP-hCXCR4 (human, UniProt P61073 1-352); assay: competition with 100 nM CXCL12-TR on HEK293 cells expressing EGFP-hCXCR4, FRET
Sequence (P61073 whole entry): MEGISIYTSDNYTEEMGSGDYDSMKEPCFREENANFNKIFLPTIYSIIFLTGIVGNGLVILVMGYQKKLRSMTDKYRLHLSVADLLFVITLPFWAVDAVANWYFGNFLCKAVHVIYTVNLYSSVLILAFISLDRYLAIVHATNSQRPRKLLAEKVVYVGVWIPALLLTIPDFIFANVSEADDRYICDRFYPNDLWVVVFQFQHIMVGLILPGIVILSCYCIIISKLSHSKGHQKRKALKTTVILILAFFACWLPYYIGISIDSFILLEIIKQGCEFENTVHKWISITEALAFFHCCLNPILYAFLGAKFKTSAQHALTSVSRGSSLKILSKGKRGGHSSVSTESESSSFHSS
quantity kind: pKi
To interpret pKi, take it as minus log10 of a concentration measured in moles per litre.

[ask] Any idea what pKi was measured for LVRYTKKVPQVSTPTL (also called Human circulating antiviral albumin fragment; wild type peptide) [ALB408-423] ?
[reply] 5.52

These entries and their values trace back to patent US20130029902A1.
